Provenance of the data: ChEMBL document CHEMBL1141074

Target: D(2) dopamine receptor (Homo sapiens, UniProt P14416)
Sequence (P14416 whole entry): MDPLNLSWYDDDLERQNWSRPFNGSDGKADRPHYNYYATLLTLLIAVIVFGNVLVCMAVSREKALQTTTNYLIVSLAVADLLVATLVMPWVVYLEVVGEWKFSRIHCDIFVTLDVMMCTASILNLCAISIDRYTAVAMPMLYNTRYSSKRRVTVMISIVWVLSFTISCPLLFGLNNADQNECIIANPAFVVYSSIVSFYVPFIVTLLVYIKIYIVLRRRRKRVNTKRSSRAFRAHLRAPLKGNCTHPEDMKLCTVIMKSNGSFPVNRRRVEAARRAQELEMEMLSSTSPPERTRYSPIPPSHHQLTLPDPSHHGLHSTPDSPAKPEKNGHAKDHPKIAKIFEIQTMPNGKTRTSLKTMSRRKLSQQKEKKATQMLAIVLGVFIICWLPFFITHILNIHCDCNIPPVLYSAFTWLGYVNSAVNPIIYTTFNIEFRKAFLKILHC
Experiment: Binding affinity towards human dopamine receptor 2 (long) expressed in Chinese hamster ovary cells using [3H]spiperone (0.5 nM) as radioligand
Assay type: cell-based
metric.name: Ki

Consider the worked cases shown below.
[
  {
    "compound": "CCCN(CCC)C1CCn2ncc(CO)c2C1 (stereo not given)",
    "experimental.target": "D(2) dopamine receptor (Homo sapiens, UniProt P14416)",
    "Ki": "> 20 µM"
  },
  {
    "compound": "CCCN(CCC)[C@@H]1CCn2nccc2C1",
    "experimental.target": "D(2) dopamine receptor (Homo sapiens, UniProt P14416)",
    "Ki": "> 20 µM"
  },
  {
    "compound": "CCCN(CCC)C1CCn2ncc(C(=O)OC)c2C1 (stereo not given)",
    "experimental.target": "D(2) dopamine receptor (Homo sapiens, UniProt P14416)",
    "Ki": "> 20 µM"
  },
  {
    "compound": "CCCNC1CCn2ncc(C(=O)OC)c2C1 (stereo not given)",
    "experimental.target": "D(2) dopamine receptor (Homo sapiens, UniProt P14416)",
    "Ki": "> 100 µM"
  }
]

Query compound follows.
Data request, read-out Ki, for CCCN(CCC)C1CCn2ncc(C=O)c2C1 (stereo not given)
5.9 µM

* * *

Biological target: UniProt:P50130
Experiment: Binding affinity (low) towards porcine dopamine receptor 1 by using [3H]-SCH- 23390 (0.3 nM) as radioligand
Recorded measurements of Ki, one per entry

[
  {
    "compound": "CCCN(CCC)[C@H]1CCn2nccc2C1",
    "result": "> 20 µM"
  }
]

Data request, read-out Ki, for CCCN(CCC)C1CCn2ncc(Cl)c2C1 (configuration not stated)
> 20 µM

* * *

Recorded measurements of Ki, one per entry
Molecular target: D(1A) dopamine receptor (Sus scrofa)
Sequence (P50130 whole entry): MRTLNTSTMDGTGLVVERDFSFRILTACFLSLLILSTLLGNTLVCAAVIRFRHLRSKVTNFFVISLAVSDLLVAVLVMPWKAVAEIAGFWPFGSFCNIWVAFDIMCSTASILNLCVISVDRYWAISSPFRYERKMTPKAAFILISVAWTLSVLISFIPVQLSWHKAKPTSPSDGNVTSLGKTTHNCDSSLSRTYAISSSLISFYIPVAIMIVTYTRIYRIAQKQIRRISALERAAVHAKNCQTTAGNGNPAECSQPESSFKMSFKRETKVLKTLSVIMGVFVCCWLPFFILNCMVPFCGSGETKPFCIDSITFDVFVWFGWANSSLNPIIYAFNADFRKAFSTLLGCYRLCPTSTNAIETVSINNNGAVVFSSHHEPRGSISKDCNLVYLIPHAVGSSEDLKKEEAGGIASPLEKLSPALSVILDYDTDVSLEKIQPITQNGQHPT
Experiment: Binding affinity towards porcine dopamine receptor 1 against radioligand [3H]-SCH- 23390

[
  {
    "molecule": "CCCN(CCC)C1CCn2ncc(C=O)c2C1 (stereo not given)",
    "experimental.target": "D(1A) dopamine receptor (Sus scrofa)",
    "Ki": "> 20 µM"
  },
  {
    "molecule": "CCCN(CCC)[C@@H]1CCn2nccc2C1",
    "experimental.target": "D(1A) dopamine receptor (Sus scrofa)",
    "Ki": "> 20 µM"
  },
  {
    "molecule": "CCCN(CCC)C1CCn2ncc(C(=O)OC)c2C1 (stereo not given)",
    "experimental.target": "D(1A) dopamine receptor (Sus scrofa)",
    "Ki": "> 20 µM"
  },
  {
    "molecule": "CCCNC1CCn2ncc(C(=O)OC)c2C1 (stereo not given)",
    "experimental.target": "D(1A) dopamine receptor (Sus scrofa)",
    "Ki": "> 20 µM"
  }
]

Query molecule follows.
Data request, read-out Ki, for CCCN(CCC)C1CCn2ncc(CO)c2C1 (stereo not given)
> 20 µM

* * *

Molecular target: D(4) dopamine receptor (Homo sapiens, UniProt P21917)
Sequence (P21917 whole entry): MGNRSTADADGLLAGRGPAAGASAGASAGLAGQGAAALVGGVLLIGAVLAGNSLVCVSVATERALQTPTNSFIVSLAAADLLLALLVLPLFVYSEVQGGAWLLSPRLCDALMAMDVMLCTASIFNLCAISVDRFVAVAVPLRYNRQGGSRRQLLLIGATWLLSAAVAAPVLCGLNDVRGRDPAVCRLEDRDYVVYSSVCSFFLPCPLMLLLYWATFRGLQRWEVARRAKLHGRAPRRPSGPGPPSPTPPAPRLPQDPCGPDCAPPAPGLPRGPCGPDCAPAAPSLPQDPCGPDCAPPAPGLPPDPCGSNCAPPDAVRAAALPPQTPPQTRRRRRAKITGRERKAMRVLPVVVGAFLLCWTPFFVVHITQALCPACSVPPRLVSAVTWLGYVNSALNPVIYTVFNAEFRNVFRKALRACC
Test: biochemical
Type: cell-based, ovary
Recorded measurements of pKi, one per entry
# pKi: negative log10 of molar concentration; output just the value

Data request, read-out pKi, for `CCCN(CCC)[C@H]1CCn2nccc2C1`
7.24

Data request, read-out pKi, for CCCN(CCC)C1CCn2nccc2C1 (racemic)
7.24

Data request, read-out pKi, for CCCN(CCC)C1CCn2ncc(Cl)c2C1 (stereo not drawn)
6.70
